Where do these numbers come from? They come from the supplement of paper PMC11208160.

recombinant barcode read abundance (log10) values by entry
- assay.details: recombinant barcode read abundance after kanamycin selection (control-corrected) (log10(CPM+1)); higher = more efficient recombination; sequences stand for … in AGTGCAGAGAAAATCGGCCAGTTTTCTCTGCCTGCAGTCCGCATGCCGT…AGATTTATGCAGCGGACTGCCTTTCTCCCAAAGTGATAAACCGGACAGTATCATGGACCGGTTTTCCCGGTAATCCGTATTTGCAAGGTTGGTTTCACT; site = the 11-nt target
Simply state the number, no unit and no words.

- GTACGGTCTTGGGTTCTAACCTGTTGCAT (site GTACGATCTTT): 0.107

Req: What does the data say about its recombinant barcode read abundance (log10)? Entry: CAGTCTACTTGGGTTCTAACCTGTTGCCT (site CCGTCTACTAG)
Resp: 0.26

Req: Need recombinant barcode read abundance (log10) of AGGCTCCCTTGGGTTCTAACCTGTTGCCT (site AGACTCCCTAG) , thanks.
Resp: 0.193

Req: recombinant barcode read abundance (log10) lookup needed for GTTCGAGCTTGGGTTCTAACCTGTTGCCT (site GTTGGAGCTAG) , thanks.
Resp: 0.114

* * *

This listing pairs sequences with measured recombinant barcode read abundance (log10).
- assay.details: recombinant barcode read abundance after kanamycin selection (control-corrected) (log10(CPM+1)); higher = more efficient recombination; sequences stand for … in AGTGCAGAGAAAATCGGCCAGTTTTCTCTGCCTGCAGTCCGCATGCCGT…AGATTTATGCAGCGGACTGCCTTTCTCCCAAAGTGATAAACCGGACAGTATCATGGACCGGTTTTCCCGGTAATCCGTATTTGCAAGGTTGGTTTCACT; site = the 11-nt target

- TTGAACTCTTGGGTTCTAACCTGTTGCCT (site TTGAACTCTAG): 1.18
- GAGGTATCTTGGGTTCTAACCTGTTGCGT (site GAGGTATCTAC): 0.252
- TTGAGGACTTGGGTTCTAACCTGTTGCCA (site TTGAGGACTTG): 0.943

Req: Reported recombinant barcode read abundance (log10), sequence GTCAACTCTTGGGTTCTAACCTGTTGCCT (site GTGAACTCTAG) : ____
Resp: 0.00674

Req: Which measured recombinant barcode read abundance (log10) value corresponds to TATACTACTTGGGTTCTAACCTGTTGCCT (site TATACTACTAG) ?
Resp: 0.0122

Req: So what's the measured recombinant barcode read abundance (log10) for this one? GGATCTACTTGGGTTCTAACCTGTTGCCT (site GTATCTACTAG)
Resp: 0.0262

Req: Quick check: recombinant barcode read abundance (log10) of CGCCTAACTTGGGTTCTAACCTGTTGCTT (site CGCCTAACTAA) ?
Resp: 0.126

Req: What does the data say about its recombinant barcode read abundance (log10)? Entry: GTTCGAGCTTGGGTTCTAACCTGTTGCGG (site GTTCGAGCTCC)
Resp: 2.49

* * *

Items are presented alongside their recorded recombinant barcode read abundance (log10).
- assay.details: recombinant barcode read abundance after kanamycin selection (control-corrected) (log10(CPM+1)); higher = more efficient recombination; sequences stand for … in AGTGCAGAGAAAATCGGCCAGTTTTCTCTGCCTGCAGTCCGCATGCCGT…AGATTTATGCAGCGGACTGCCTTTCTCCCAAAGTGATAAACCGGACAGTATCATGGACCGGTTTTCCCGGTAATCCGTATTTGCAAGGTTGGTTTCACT; site = the 11-nt target

Some solved cases for reference:
- TATCCATCTTGGGTTCTAACCTGTTGCCT (site TAGCCATCTAG): 0.0545
- GATCCATCTTGGGTTCTAACCTGTTGCCT (site GTTCCATCTAG): 0.142
- TCTGGGGCTTGGGTTCTAACCTGTTGCCG (site TCTGGGGCTCG): 1.89
- GGATTGTCTTGGGTTCTAACCTGTTGCTT (site GGATTGTCTAA): 0.742
- TGTCTACCTTGGGTTCTAACCTGTTGCCT (site TGTCTACCTAG): 0.191

# input for lookup
Req: I am curious: what recombinant barcode read abundance (log10) value has been reported for TATGGAGCTTGGGTTCTAACCTGTTGCAG (site GTTGGAGCTCT) ?
Resp: 1.14

* * *

- assay.details: recombinant UMI read abundance after kanamycin selection (control-corrected) (log10(CPM+1)); higher = more efficient recombination; extreme values may be limits of the assay; sequences stand for … in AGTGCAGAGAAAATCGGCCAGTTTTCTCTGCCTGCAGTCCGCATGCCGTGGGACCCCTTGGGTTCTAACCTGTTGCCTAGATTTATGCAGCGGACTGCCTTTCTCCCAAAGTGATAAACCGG…AGGTTGGTTTCACT; site = the 11-nt donor
measured.endpoint: recombinant UMI read abundance (log10)
No unit in the answer, please; the number alone is enough.

Please review the following examples before continuing.
• ACGAGAACATGGACCGGTTTTCCCGGTAATCCGTATTTGAG (site ACTAGAACTCT) = 0.873
• TTGCGGGCATGGACCGGTTTTCCCGGTAATCCGTATTTGGG (site TTGCGGGCTCC) = 0.00376
• CCAGGATCATGGACCGGTTTTCCCGGTAATCCGTATTTGCA (site ACAGTATCTTG) = 0
• CTCTACACATGGACCGGTTTTCCCGGTAATCCGTATTTGCT (site CTCTTCACTAG) = 0.548
• CAAGCAGCATGGACCGGTTTTCCCGGTAATCCGTATTTGCA (site CAAGCAGCTGG) = 1.06

Req: Look up recombinant UMI read abundance (log10): GTGGAGACATGGACCGGTTTTCCCGGTAATCCGTATTTGTG (site GTGGAGCCTCA)
Resp: 0.0116

* * *

Overview of reported recombinant UMI read abundance (log10) across a group of sequences:
- assay.details: recombinant UMI read abundance after kanamycin selection (control-corrected) (log10(CPM+1)); higher = more efficient recombination; extreme values may be limits of the assay; sequences stand for … in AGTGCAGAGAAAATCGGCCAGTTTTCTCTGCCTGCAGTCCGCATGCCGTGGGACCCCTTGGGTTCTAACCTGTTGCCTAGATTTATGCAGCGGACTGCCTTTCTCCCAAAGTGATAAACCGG…AGGTTGGTTTCACT; site = the 11-nt donor
Write the value as a bare number.

- CCGAATACATGGACCGGTTTTCCCGGTAATCCGTATTTGGC (site CCCAATACTGC): 0
- ATAAGGCCATGGACCGGTTTTCCCGGTAATCCGTATTTGAC (site ATAAGGCCTTT): 0.131
- ACTAGTGCATGGACCGGTTTTCCCGGTAATCCGTATTTGGC (site ACTAGTGCTAC): 0.0845

Req: Entry CGAGGACCATGGACCGGTTTTCCCGGTAATCCGTATTTGGG (site CGAGGTCCTCC) : reported recombinant UMI read abundance (log10) = ?
Resp: 0.00323

Req: Value lookup for recombinant UMI read abundance (log10); key = GGATAGCCATGGACCGGTTTTCCCGGTAATCCGTATTTGCC (site GGATAGGCTGG)
Resp: 0

* * *

- assay.details: recombinant barcode read abundance after kanamycin selection (control-corrected) (log10(CPM+1)); higher = more efficient recombination; sequences stand for … in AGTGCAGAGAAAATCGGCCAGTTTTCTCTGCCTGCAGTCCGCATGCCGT…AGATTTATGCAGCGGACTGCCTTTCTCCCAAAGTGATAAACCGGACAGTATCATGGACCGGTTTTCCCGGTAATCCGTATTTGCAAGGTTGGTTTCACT; site = the 11-nt target
Reported recombinant barcode read abundance (log10) values are given for each entry in this list.
In your answer, state the number alone without any accompanying words.

Here's what some known entries look like.
* AAGCATTCTTGGGTTCTAACCTGTTGCCT (site AAGCAATCTAG) | 0.379
* CTCCGATCTTGGGTTCTAACCTGTTGCGG (site CTCCGATCTCC) | 0.0434
* CTATCGACTTGGGTTCTAACCTGTTGCCT (site CTATCGACTAG) | 0.766

Req: Look up recombinant barcode read abundance (log10): TCCGCTCCTTGGGTTCTAACCTGTTGCCT (site TCCGCTCCTAG)
Resp: 0.323

Req: Record request: recombinant barcode read abundance (log10) value, item AATGCTCCTTGGGTTCTAACCTGTTGCTT (site AATGCTCCTAC)
Resp: 0.0515

Req: What measured recombinant barcode read abundance (log10) goes with GCATCCTCTTGGGTTCTAACCTGTTGCCA (site GCATCCTCTTG) ?
Resp: 0.584

Req: What value of measured recombinant barcode read abundance (log10) is listed for GCGTCCACTTGGGTTCTAACCTGTTGCCT (site GCATCCACTAG) ?
Resp: 0.398

Req: Which recombinant barcode read abundance (log10) is reported for this sequence? TGACGCTCTTGGGTTCTAACCTGTTGCCT (site TGTCGCTCTAG)
Resp: 0.433

Req: Form field: reported recombinant barcode read abundance (log10) of ATAAGGCCTTGGGTTCTAACCTGTTGCCT (site ATAAAGCCTAG)
Resp: 0.102

Req: recombinant barcode read abundance (log10) lookup needed for AGAAGTCCTTGGGTTCTAACCTGTTGCAG (site AGAAGTCCTCG) , thanks.
Resp: 0.366

Req: If you can, please state the reported recombinant barcode read abundance (log10) value of TACCGTTCTTGGGTTCTAACCTGTTGCCT (site TACCGTTCTAG) .
Resp: 0.41

Req: Given the entry CGTTGGTCTTGGGTTCTAACCTGTTGCGA (site CGTTGGTCTTC) , report its measured recombinant barcode read abundance (log10).
Resp: 0.759

Req: Given the entry GGTCGCTCTTGGGTTCTAACCTGTTGCCT (site GGTCGCTCTAG) , report its measured recombinant barcode read abundance (log10).
Resp: 1.35

Req: Item TTACCAACTTGGGTTCTAACCTGTTGCCT (site TTACCGACTAG) has what recorded recombinant barcode read abundance (log10)?
Resp: 0.0912

Req: Need recombinant barcode read abundance (log10) of ACTACTACTTGGGTTCTAACCTGTTGCCA (site GGTACTACTTG) , thanks.
Resp: 0.433

Req: Quick one: recombinant barcode read abundance (log10) for GGTGACTCTTGGGTTCTAACCTGTTGCCT (site GGTGACTCTAG) ?
Resp: 1.15

Req: Reported recombinant barcode read abundance (log10) for GATCATCCTTGGGTTCTAACCTGTTGCCT (site GATCATCCTAG) : what is it?
Resp: 0.364

Req: Looking for the measured recombinant barcode read abundance (log10) of CCGCACACTTGGGTTCTAACCTGTTGCCT (site ACGCACACTAG) , can you help?
Resp: 0.191

Req: Suppose we examine the sequence GCCGAGTCTTGGGTTCTAACCTGTTGCTT (site GCCGAGTCTAA) ; what recombinant barcode read abundance (log10) value has been reported?
Resp: 0.688
